Just for reference, patent US7351861B2 is where these values come from.

tested on: luciferase light signal from pIB102EL (yopE-luxAB, wild-type); assay: microbe, parasite or virus in culture; format: cell-based, Yersinia pseudotuberculosis; details: 5 μM; strain pIB102EL; Table 2C
Metric: Inhibition (%) of the luciferase light signal

1) O=C(N/N=C/c1cc(I)cc(I)c1O)c1ccc([N+](=O)[O-])cc1 [Compound 41]	3
2) O=C(N/N=C/c1ccc(O)c(O)c1O)c1ccccc1 [Compound 36]	5
3) O=C(N/N=C/c1cc(Br)ccc1O)c1cccnc1 [Compound 42]	0
4) Nc1ccc(C(=O)N/N=C/c2c(O)ccc3ccccc23)cc1 [Compound 44]	3
5) CCOc1cccc(/C=N/NC(=O)c2ccc(Cl)cc2)c1O [Compound 43]	0
6) CC(=NNC(=O)c1cccnc1)c1cc(Br)cc(Br)c1O [Compound 39]	0
7) O=C(N/N=C/c1ccc(O)cc1O)c1ccc([N+](=O)[O-])cc1 [Compound 38]	4
8) Nc1ccc(C(=O)N/N=C/c2cc(I)cc(I)c2O)cc1 [Compound 40]	3
9) O=C(N/N=C/c1cc(Cl)cc(Cl)c1O)c1ccccc1 [Compound 35]	0
